ASSAY SYSTEM: human C3b (Homo sapiens)
Construct: purchased Complement Technology, Tyler, TX, USA
Sequence (P01024 23-667 limits assumed): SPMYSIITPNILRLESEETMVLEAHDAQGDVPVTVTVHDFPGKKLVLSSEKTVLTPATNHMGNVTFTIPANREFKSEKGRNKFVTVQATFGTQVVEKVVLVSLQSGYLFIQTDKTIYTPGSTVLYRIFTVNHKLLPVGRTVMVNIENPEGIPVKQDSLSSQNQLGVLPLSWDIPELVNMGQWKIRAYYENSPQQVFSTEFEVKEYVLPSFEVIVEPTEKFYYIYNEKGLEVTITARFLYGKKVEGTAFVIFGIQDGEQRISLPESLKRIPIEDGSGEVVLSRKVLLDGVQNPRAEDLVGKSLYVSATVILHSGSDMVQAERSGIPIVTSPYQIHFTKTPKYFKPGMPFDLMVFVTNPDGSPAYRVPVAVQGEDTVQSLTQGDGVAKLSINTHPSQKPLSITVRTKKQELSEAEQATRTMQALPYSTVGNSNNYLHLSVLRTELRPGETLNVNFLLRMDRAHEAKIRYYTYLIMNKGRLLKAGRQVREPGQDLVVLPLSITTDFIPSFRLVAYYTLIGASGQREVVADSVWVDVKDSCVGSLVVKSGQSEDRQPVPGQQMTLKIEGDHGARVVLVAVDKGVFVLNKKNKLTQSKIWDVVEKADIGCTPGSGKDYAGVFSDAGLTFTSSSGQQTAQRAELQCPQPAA
Sequence (P01024 749-1663 partner limits assumed): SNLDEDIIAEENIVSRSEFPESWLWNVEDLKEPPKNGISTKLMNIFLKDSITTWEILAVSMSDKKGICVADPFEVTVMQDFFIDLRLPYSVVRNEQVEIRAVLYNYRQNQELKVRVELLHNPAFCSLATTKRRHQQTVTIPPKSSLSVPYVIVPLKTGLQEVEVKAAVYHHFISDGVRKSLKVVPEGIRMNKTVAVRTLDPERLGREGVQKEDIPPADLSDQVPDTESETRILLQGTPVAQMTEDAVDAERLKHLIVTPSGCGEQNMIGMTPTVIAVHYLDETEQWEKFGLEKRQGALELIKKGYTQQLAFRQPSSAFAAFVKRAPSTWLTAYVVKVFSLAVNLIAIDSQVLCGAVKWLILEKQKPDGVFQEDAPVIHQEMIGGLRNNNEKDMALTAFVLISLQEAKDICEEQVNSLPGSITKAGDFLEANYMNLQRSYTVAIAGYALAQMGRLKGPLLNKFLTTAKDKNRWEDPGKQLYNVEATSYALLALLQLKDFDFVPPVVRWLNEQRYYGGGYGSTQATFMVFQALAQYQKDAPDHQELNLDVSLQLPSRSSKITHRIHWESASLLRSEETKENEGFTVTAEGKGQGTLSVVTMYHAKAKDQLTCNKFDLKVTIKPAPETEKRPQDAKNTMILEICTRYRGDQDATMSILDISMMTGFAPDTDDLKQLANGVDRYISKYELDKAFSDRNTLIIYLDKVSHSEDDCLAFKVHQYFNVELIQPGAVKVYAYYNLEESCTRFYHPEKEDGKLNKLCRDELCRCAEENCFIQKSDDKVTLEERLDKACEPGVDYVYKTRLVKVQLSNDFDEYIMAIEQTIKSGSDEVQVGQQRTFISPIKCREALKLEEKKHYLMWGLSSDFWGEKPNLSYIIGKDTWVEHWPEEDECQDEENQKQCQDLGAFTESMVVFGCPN
ASSAY TEXT: SPR kinetic binding to immobilized human C3b
STUDY CONDITIONS: SPR, 1:1 Langmuir fit, average of 3 independent experiments, SD in brackets; read-out: K D, affinity hC3b
Where a SMILES comes first, the peptide text is derived from it. Bridges are numbered along the chain shown (N, C = ends). [ ]: non-standard residue; d: D form. Trp(1-Me) = Cn1cc(C[C@H](N)C(=O)O)c2ccccc21
Each entry below lists one item and its recorded Kd value.
A number alone suffices; assume nM.

compound="CC[C@H](C)[C@H](NC(C)=O)C(=O)N[C@H]1CSSC[C@@H](C(=O)N[C@H](C(N)=O)[C@@H](C)O)NC(=O)[C@H](CCCNC(=N)N)NC(=O)[C@H](Cc2c[nH]cn2)NC(=O)[C@H](C)NC(=O)CNC(=O)[C@H](Cc2c[nH]c3ccccc23)NC(=O)[C@H](CC(=O)O)NC(=O)[C@H](CCC(N)=O)NC(=O)[C@H](Cc2cn(C)c3ccccc23)NC(=O)[C@H]([C@@H](C)CC)NC1=O [Cp05-Val3Ile] (Ac-ICI[Trp(1-Me)]QDWGAHRCT-NH2; disulfide 2-12)" experimental_endpoint=Kd value=1.5

We next turn to a different compound, shown below.
Lab note: measured Kd of CC[C@H](C)[C@H](NC(C)=O)C(=O)N[C@H]1CSSC[C@@H](C(=O)N[C@H](C(N)=O)[C@@H](C)O)NC(=O)[C@H](CCCNC(=N)N)NC(=O)[C@H](Cc2c[nH]cn2)NC(=O)[C@H](C)NC(=O)CNC(=O)[C@H](Cc2c[nH]c3ccccc23)NC(=O)[C@H](CC(=O)O)NC(=O)[C@H](CCC(N)=O)NC(=O)[C@H](Cc2c[nH]c3ccccc23)NC(=O)[C@H](CC(C)C)NC1=O [Cp01-Val3Leu] (Ac-ICLWQDWGAHRCT-NH2; disulfide 2-12) was 552
